- System: S. aureus ATCC 29213 (HAV#001)
- protocol: MIC by broth microdilution (CLSI)
- Format: cell-based
- protocol.conditions: Staphylococcus aureus, ATCC29213, 24 h, HAV#001, ATCC 29213; CaMHB, 24 h incubation; read-out: MIC S. aureus ATCC 29213
Counter-ions that a name gives are not always drawn.
metric.name: log10 of MIC (log10 of the value in µg/mL)
In plain terms, each number is the log10 of measured MIC in µg/mL.

Which log10 of MIC is listed for CC(C)C[C@@H]1CCO[C@@H]2[C@H](CN[C@@H]2C(=O)N[C@H]2[C@H]3O[C@H](SCCCCC2(C)C)[C@H](O)[C@@H](O)[C@H]3O)C1 [FSA1504068, formate salt] ?
-0.30

Which log10 of MIC is listed for CC(C)C[C@@H]1CCO[C@@H]2[C@H](CN[C@@H]2C(=O)N[C@H]2[C@H]3O[C@H](S[C@H](c4cn(-c5cc(F)c(F)cc5F)nn4)C/C=C\[C@H]2C)[C@H](O)[C@@H](O)[C@H]3O)C1 [FSA1609051, formate salt] ?
-0.60

Which log10 of MIC is listed for CC(C)C[C@@H]1CCO[C@@H]2[C@H](CN[C@@H]2C(=O)N[C@@H]2C/C=C\C[C@@H](CN3CCOCC3)S[C@H]3O[C@H]2[C@H](O)[C@H](O)[C@H]3O)C1 [FSA1607019, formate salt] ?
0.60

Which log10 of MIC is listed for CC(C)C[C@@H]1CCO[C@@H]2[C@H](CN[C@@H]2C(=O)N[C@@H]2C/C=C\C[C@@H](c3c[nH]nn3)S[C@H]3O[C@H]2[C@H](O)[C@H](O)[C@H]3O)C1 [FSA1607090, formate salt] ?
0.90

Which log10 of MIC is listed for CC(C)C[C@@H]1CCO[C@@H]2[C@H](CN[C@@H]2C(=O)N[C@@H]2C/C=C\[C@@H](CN3CCCC3)CS[C@H]3O[C@H]2[C@H](O)[C@H](O)[C@H]3O)C1 [FSA1608037, formate salt] ?
1.51

====

Please provide measured MIC for the entries that follow.
- Test system: E. faecalis ATCC 29212 (HAV#005)
- protocol: MIC by broth microdilution (CLSI)
- Type: cell-based
- protocol.conditions: Enterococcus faecalis, ATCC29212, 24 h, HAV#005, ATCC 29212; CaMHB, 24 h incubation; read-out: MIC E. faecalis ATCC 29212
Where a name gives a salt, the structure may show the parent alone.
Number only, in µg/mL; omit the unit.

Which MIC is listed for CC(C)C[C@@H]1CCO[C@@H]2[C@H](CN[C@@H]2C(=O)N[C@H]2[C@H]3O[C@H](SCCCC/C=C/[C@H]2C)[C@H](O)[C@@H](O)[C@H]3O)C1 [FSA1610016] ?
0.25

Which MIC is listed for CC(C)C[C@@H]1CCO[C@@H]2[C@H](CN[C@@H]2C(=O)N[C@@H]2C/C=C\C[C@H](CN3CCOCC3)S[C@H]3O[C@H]2[C@H](O)[C@H](O)[C@H]3O)C1 [FSA1607020, formate salt] ?
4

Which MIC is listed for CC(C)C[C@@H]1CCO[C@@H]2[C@H](CN[C@@H]2C(=O)N[C@H]2[C@H]3O[C@H](SCCCC/C=C/[C@@H]2C)[C@H](O)[C@@H](O)[C@H]3O)C1 [FSA1610014] ?
2

Which MIC is listed for CC(C)C[C@@H]1CCO[C@@H]2[C@H](CN[C@@H]2C(=O)N[C@@H]2C/C=C\[C@@H](CN3CCCC3)CS[C@H]3O[C@H]2[C@H](O)[C@H](O)[C@H]3O)C1 [FSA1608037, formate salt] ?
16

====

- System: S. aureus ATCC 29213 (HAV#001)
- protocol: MIC by broth microdilution (CLSI)
- Format: cell-based
- protocol.conditions: Staphylococcus aureus, ATCC29213, 24 h, HAV#001, ATCC 29213; CaMHB, 24 h incubation; read-out: MIC S. aureus ATCC 29213
Where a name gives a salt, the structure may show the parent alone.
metric.name: MIC (µg/mL)
Number only, in µg/mL; omit the unit.

Which MIC is listed for CC(C)C[C@@H]1CCO[C@@H]2[C@H](CN[C@@H]2C(=O)N[C@@H]2CC(C)(C)/C=C/CS[C@H]3O[C@H]2[C@H](O)[C@H](O)[C@H]3O)C1 [FSA1503085, formate salt] ?
0.25

Which MIC is listed for CC(C)C[C@@H]1CCO[C@@H]2[C@H](CN[C@@H]2C(=O)N[C@@H]2C/C=C\C[C@@H](CN3CCCC3)S[C@H]3O[C@H]2[C@H](O)[C@H](O)[C@H]3O)C1 [FSA1606086, formate salt] ?
16

Which MIC is listed for CC(C)C[C@@H]1CCO[C@@H]2[C@H](CN[C@@H]2C(=O)N[C@@H]2CC/C=C/CS[C@H]3O[C@H]2[C@H](O)[C@H](O)[C@H]3O)C1 [FSA1503054, formate salt] ?
0.125

Which MIC is listed for CC(C)C[C@@H]1CCO[C@@H]2[C@H](CN[C@@H]2C(=O)N[C@H]2[C@H]3O[C@H](SCCCC/C=C\[C@H]2C)[C@H](O)[C@@H](O)[C@H]3O)C1 ?
0.125

Which MIC is listed for CC(C)C[C@@H]1CCO[C@@H]2[C@H](CN[C@@H]2C(=O)N[C@@H]2C/C=C/[C@@H](CO)CSC3O[C@H]2C(O)C(O)[C@H]3O)C1 (single isomer, unassigned) [FSA1608025A, formate salt] ?
4

====

- System: S. aureus ATCC 29213 (HAV#001)
- protocol: MIC by broth microdilution (CLSI)
- Type: cell-based
- protocol.conditions: Staphylococcus aureus, ATCC29213, 24 h, HAV#001, ATCC 29213; CaMHB, 24 h incubation; read-out: MIC S. aureus ATCC 29213
Structures can show the parent of a compound that is named as a salt.
metric.name: MIC

Which MIC is listed for CC(C)C[C@@H]1CCO[C@@H]2[C@H](CN[C@@H]2C(=O)N[C@@H]2C/C=C\C[C@H](CO)S[C@H]3O[C@H]2[C@H](O)[C@H](O)[C@H]3O)C1 [FSA1606033, hydrochloride salt] ?
1 µg/mL

Which MIC is listed for CC(C)C[C@@H]1CCO[C@@H]2[C@H](CN[C@@H]2C(=O)N[C@H]2[C@H]3O[C@H](SCCCC/C=C/[C@@H]2C)[C@H](O)[C@@H](O)[C@H]3O)C1 ?
0.5 µg/mL

Which MIC is listed for CC(C)C[C@@H]1CCO[C@@H]2[C@H](CN[C@@H]2C(=O)N[C@@H]2C/C=C\C[C@@H](c3cn(-c4ccccc4)nn3)S[C@H]3O[C@H]2[C@H](O)[C@H](O)[C@H]3O)C1 [FSA1607075, formate salt] ?
2 µg/mL

Which MIC is listed for CC(C)C[C@@H]1CCO[C@@H]2[C@H](CN[C@@H]2C(=O)N[C@@H]2C/C=C\C[C@H](CN3CCOCC3)S[C@H]3O[C@H]2[C@H](O)[C@H](O)[C@H]3O)C1 [FSA1607020, formate salt] ?
4 µg/mL

Which MIC is listed for CC(C)C[C@@H]1CCO[C@@H]2[C@H](CN[C@@H]2C(=O)N[C@@H]2CCCCCS[C@H]3O[C@H]2[C@H](O)[C@H](O)[C@H]3O)C1 [FSA1503058, formate salt] ?
0.125 µg/mL

Which MIC is listed for CC(C)C[C@@H]1CCO[C@@H]2[C@H](CN[C@@H]2C(=O)N[C@@H]2C/C=C/C(CN3CCOCC3)CSC3OC2C(O)C(O)C3O)C1 (single isomer, unassigned) [FSA1608057, formate salt] ?
4 µg/mL

Which MIC is listed for CC(C)C[C@@H]1CCO[C@@H]2[C@H](CN[C@@H]2C(=O)N[C@@H]2C/C=C\C[C@@H](CO)S[C@H]3O[C@H]2[C@H](O)[C@H](O)[C@H]3O)C1 [FSA1606034, hydrochloride salt] ?
1 µg/mL

Which MIC is listed for CC(C)C[C@@H]1CCO[C@@H]2[C@H](CN[C@@H]2C(=O)N[C@@H]2C/C=C/[C@@H](O)CS[C@H]3O[C@H]2[C@H](O)[C@H](O)[C@H]3O)C1 [FSA1608016, formate salt] ?
8 µg/mL

Which MIC is listed for CC(C)C[C@@H]1CCO[C@@H]2[C@H](CN[C@@H]2C(=O)N[C@H]2C3OC(SC/C=C\CC2(C)C)C(O)C(O)C3O)C1 (single isomer, unassigned) [FSA1504066B, formate salt] ?
0.5 µg/mL

Which MIC is listed for CC(C)C[C@@H]1CCO[C@@H]2[C@H](CN[C@@H]2C(=O)N[C@@H]2C/C=C\[C@@H](CO)CS[C@H]3O[C@H]2[C@H](O)[C@H](O)[C@H]3O)C1 [FSA1608024, formate salt] ?
4 µg/mL
